# Procedure Details: inhibitors of TNFa-induced NFkB p65 translocation, primary screen, imaging, HUVEC, MLSMR starter and 10KST1 sets (AID 438);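 also: compound added about 3h40 before a 20 min TNFalpha stimulation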
# Particulars: HUVEC TNFa-induced p65 nuclear translocation; measured here: nuclei count (cytotoxicity indicator), at 2.08 µM
Assign class by cell count: not lower than 500 means rule met; lower than 500 means rule not met.

Before answering, review these 8 worked examples.
Molecule	Answer Label
CC(C)=CCSc1nnc([C@@H](N)Cc2c[nH]c3ccccc23)o1	rule met
COc1cc(C2NCc3ccccc3-n3cccc32)ccc1O (centres undefined)	rule met
C=CCn1c(O)c(C(C)=Nc2ccc(N(CC)CC)cc2)c(=O)[nH]c1=O	rule not met
CCn1nc(-c2ccccc2)nc2c(=O)n(C)c(=O)nc1-2	rule not met
O=c1[nH]c(=O)n(Cc2ccccc2)c(O)c1C=NCCCO	rule not met
NCC1(CC(=O)O)CCCCC1	rule met
CC(=O)N1CC(=O)Nc2ccc(Cl)cc2C1c1ccc(F)cc1 (centres undefined)	rule not met
CC1(C)CC(=O)C(C=NCCN2CCN(C(=O)Cc3ccc(F)cc3)CC2)=C(O)C1	rule met

input: Please indicate if the recorded cell count for CC(=O)OC1N=C(c2ccccc2)c2ccccc2NC1=O (centres undefined) meets or exceeds 500.
output: rule not met

input: Please indicate if the recorded cell count for C=CCn1c(O)c(C=NCCN(C)C)c(=O)[nH]c1=O meets or exceeds 500.
output: rule not met

input: Please indicate if the recorded cell count for COc1ccc(C2SCC(=O)Nc3c2c(=O)[nH]n3C2CCCCCC2)cc1OC (centres undefined) meets or exceeds 500.
output: rule not met

input: Please indicate if the recorded cell count for O=C1OCCC1NC1=NCCC1 (centres undefined) meets or exceeds 500.
output: rule met

input: Please indicate if the recorded cell count for CCCCCCC(N)CC(=O)O (centres undefined) meets or exceeds 500.
output: rule met

input: Please indicate if the recorded cell count for CCOC(C(=O)OCC(O)CN(CC)CC)(c1ccccc1)c1ccccc1 (centres undefined) meets or exceeds 500.
output: rule met

input: Please indicate if the recorded cell count for CC(=NCCCN1CCOCC1)c1c(O)n(-c2ccccc2C)c(=O)[nH]c1=O meets or exceeds 500.
output: rule not met

input: Please indicate if the recorded cell count for C[N+]1(C)CCN(c2ccccc2)CC1 meets or exceeds 500.
output: rule met

input: Please indicate if the recorded cell count for CCOc1ccc(-n2c(O)c(C=NCCN3CCNCC3)c(=O)[nH]c2=O)cc1 meets or exceeds 500.
output: rule met

input: Please indicate if the recorded cell count for CCCCCCn1c(O)c(C=NCCCn2ccnc2)c(=O)[nH]c1=O meets or exceeds 500.
output: rule met

input: Please indicate if the recorded cell count for CC1CCC(C(C)C)C(OP(N)(=O)c2ccccc2)C1 (centres undefined) meets or exceeds 500.
output: rule not met

input: Please indicate if the recorded cell count for O=C(CN1C(=O)CN=C(c2ccccc2)c2ccccc21)NCc1ccco1 meets or exceeds 500.
output: rule met

input: Please indicate if the recorded cell count for CC(C)(C)P(=O)(c1ccncc1)N1CCCC1 (centres undefined) meets or exceeds 500.
output: rule met

input: Please indicate if the recorded cell count for Cc1c(N=Cc2c(O)n(Cc3ccco3)c(=O)[nH]c2=O)c(=O)n(-c2ccccc2)n1C meets or exceeds 500.
output: rule met

input: Please indicate if the recorded cell count for CCOCC(=O)NC1CCSC1=O (centres undefined) meets or exceeds 500.
output: rule not met
